Recorded values, source patent US20060193829A1.

test-system: REFACTO® (recombinant factor VIII-like polypeptide consisting of amino acids 1-743 and 1638 through 2332 of human factor VIII) (human) (UniProt P00451)
Sequence (P00451 20-762, chain 1 of 2): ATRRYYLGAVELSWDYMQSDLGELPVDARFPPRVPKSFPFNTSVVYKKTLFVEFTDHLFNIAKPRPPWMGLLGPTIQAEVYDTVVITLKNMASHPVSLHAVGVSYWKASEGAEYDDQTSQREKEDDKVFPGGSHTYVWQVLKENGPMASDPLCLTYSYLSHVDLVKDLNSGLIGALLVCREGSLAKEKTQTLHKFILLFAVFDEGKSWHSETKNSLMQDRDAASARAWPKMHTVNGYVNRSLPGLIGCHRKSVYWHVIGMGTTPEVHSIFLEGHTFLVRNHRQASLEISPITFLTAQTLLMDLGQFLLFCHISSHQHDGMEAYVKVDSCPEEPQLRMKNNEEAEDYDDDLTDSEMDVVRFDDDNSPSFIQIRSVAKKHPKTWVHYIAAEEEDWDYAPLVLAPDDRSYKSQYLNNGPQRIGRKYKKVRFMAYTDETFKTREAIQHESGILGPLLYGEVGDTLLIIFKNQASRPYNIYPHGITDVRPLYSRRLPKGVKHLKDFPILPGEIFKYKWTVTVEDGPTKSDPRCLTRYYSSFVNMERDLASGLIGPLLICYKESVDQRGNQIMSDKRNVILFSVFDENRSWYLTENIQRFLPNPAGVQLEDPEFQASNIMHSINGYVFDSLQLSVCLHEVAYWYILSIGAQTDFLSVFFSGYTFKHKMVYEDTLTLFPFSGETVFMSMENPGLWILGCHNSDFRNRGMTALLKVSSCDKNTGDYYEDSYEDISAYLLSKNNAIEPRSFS
Sequence (P00451 1657-2351, chain 2 of 2): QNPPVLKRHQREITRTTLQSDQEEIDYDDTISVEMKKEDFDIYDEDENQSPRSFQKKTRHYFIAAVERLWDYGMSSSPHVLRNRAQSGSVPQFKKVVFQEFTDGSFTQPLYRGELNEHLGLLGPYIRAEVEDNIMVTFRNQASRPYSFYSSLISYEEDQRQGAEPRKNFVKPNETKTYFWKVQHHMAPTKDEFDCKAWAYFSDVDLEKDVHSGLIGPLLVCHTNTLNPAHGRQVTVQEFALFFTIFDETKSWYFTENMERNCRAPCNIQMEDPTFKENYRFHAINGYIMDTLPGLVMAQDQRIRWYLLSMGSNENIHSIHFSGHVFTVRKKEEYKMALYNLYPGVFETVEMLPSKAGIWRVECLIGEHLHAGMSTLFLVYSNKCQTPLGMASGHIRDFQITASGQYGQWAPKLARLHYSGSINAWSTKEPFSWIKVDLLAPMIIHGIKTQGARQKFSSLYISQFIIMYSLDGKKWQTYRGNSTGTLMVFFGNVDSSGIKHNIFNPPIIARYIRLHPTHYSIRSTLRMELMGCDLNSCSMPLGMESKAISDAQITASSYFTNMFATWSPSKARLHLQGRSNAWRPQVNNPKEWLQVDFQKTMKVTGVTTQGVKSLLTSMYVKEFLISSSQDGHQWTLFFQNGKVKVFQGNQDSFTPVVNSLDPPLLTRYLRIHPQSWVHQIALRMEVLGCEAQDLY
protocol-details: phage ELISA, phage isolate on factor VIII target, anti-M13-HRP
A collection of binders and their measured ELISA signal
Number in OD630, nothing else.

Worked examples follow.
                                     binder  endpoint_result
0             FHCIGVWFCLH [TN7 isolate A09]              0.1
1  FCWVHPFAHCL [TN9 isolate 02 (SEQ ID NO: 23)]              0.2

As a next step, examine the binder that follows.
[ask] So what's the measured ELISA signal for this one? HPCGAWLRPCYN [TN8 isolate 08 (SEQ ID NO: 20)]
[reply] 1
